Target: T1, KGF (hKGF) (Homo sapiens, UniProt P21781 P21781:32-194)
T1 sequence: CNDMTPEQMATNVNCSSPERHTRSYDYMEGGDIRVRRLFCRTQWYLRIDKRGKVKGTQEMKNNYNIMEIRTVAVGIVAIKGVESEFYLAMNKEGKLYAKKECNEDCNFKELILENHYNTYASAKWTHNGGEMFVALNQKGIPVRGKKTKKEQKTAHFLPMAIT
Experiment: filter; similar to random RNA
Details: tags: Upstate Biotechnology; label: 32P
pKd: −log10 of the molar value.

{"Binder": "59N (ssRNA, 2'-NH2 pyrimidines) RNA: GGGAGGACGAUGCGGGGUGGGUGGUUACCUGUAAUUAUAUUGAUUCUGGCUUUAGCAGACGACUCGCCCGA", "pKd": 7.66}
{"Binder": "57N (ssRNA, 2'-NH2 pyrimidines) RNA: GGGAGGACGAUGCGGUCGUGGGGUGGGUGGGGGCAGCGUUGGAAUAAGUAACUGGUAACGGCUGGCCAGACGACUCGCCCGA", "pKd": 7.45}
{"Binder": "65N (ssRNA, 2'-NH2 pyrimidines) RNA: GGGAGGACGAUGCGGUAACGUGGAAUAGGGUUAAACAGCUGGAAAUAACGUAGGUGGCCAGACGACUCGCCCGA", "pKd": 7.58}
